Reference for the values: paper PMC11676834

# METHOD SUMMARY: in vitro
# Assay type: cell-based, human
# CONDITION NOTES: human, MTT, 24 h; read-out: Cytotoxicity, IC50, MCF-10A
pIC50: −log10 of the molar value.
Parameter pIC50: see the listing below.
PROPERTY MEASURED: pIC50

compound="C=C(C)CCC[C@]1(C)OC(=O)C23CC[C@H]4C(=CC[C@H]5C(C)(C)C(O[C@@H]6OC[C@@H](OS(=O)(=O)O)[C@H](O)[C@H]6O[C@@H]6O[C@H](CO)[C@@H](O[C@@H]7O[C@H](COS(=O)(=O)O)[C@@H](O)[C@H](O[C@@H]8O[C@H](CO)[C@@H](O)[C@H](OC)[C@H]8O)[C@H]7O)[C@H](O)[C@H]6O[C@@H]6OC[C@@H](O)[C@H](O)[C@H]6O)CC[C@]45C)[C@]2(C)C[C@H](OC(C)=O)C31 (some centres unmarked) [Okhotoside B2 (9), okhotoside B2]" value_observed=4.97
compound="CO[C@@H]1[C@@H](O)[C@H](O[C@@H]2[C@@H](O)[C@H](O[C@H]3[C@H](O)[C@@H](O[C@@H]4OC[C@@H](O)[C@H](O)[C@H]4O)[C@H](O[C@H]4[C@H](O[C@H]5CC[C@]6(C)C7CC[C@]8(C)[C@@H]([C@@](C)(O)[C@@H](CC=C(C)C)OC(C)=O)CC[C@@]8(C)C7=CC[C@H]6C5(C)C)OC[C@@H](OS(=O)(=O)O)[C@@H]4O)O[C@@H]3C)O[C@H](COS(=O)(=O)O)[C@H]2O)O[C@H](CO)[C@H]1O (some centres unmarked) [Conicospermiumoside A3-2 (2)]" value_observed=4.43

###

# Tested on: human erythrocytes
# METHOD SUMMARY: Hemolytic activity
# Assay type: cell-based
# CONDITION NOTES: Erythrocyte, 1 h at 37 °C, read-out: ED50, Erythrocytes (hemolytic activity)
Parameter HC50: see the listing below.
PROPERTY MEASURED: HC50 (nM)

compound="CO[C@@H]1[C@@H](O)[C@H](O[C@@H]2[C@@H](O)[C@H](O[C@H]3[C@H](O)[C@@H](O[C@@H]4OC[C@@H](O)[C@H](O)[C@H]4O)[C@H](O[C@H]4[C@H](O[C@H]5CC[C@]6(C)C7CC[C@]8(C)[C@@H]([C@@](C)(O)[C@H](O)CC=C(C)C)CC[C@@]8(C)C7=CC[C@H]6C5(C)C)OC[C@@H](OS(=O)(=O)[O-])[C@@H]4O)O[C@@H]3C)O[C@H](COS(=O)(=O)[O-])[C@H]2O)O[C@H](CO)[C@H]1O.[Na+].[Na+] (stereo partly drawn) [Conicospermiumoside A3-1 (1)]" property_measured=HC50 value_observed=770
compound="CO[C@@H]1[C@@H](O)[C@H](O[C@@H]2[C@@H](O)[C@H](O[C@H]3[C@H](O)[C@@H](O[C@@H]4OC[C@@H](O)[C@H](O)[C@H]4O)[C@H](O[C@H]4[C@H](O[C@H]5CC[C@]6(C)C7=CC[C@]8(C)[C@@H]([C@@](C)(O)C(=O)CC=C(C)C)CC[C@@]8(C)C7CC[C@H]6C5(C)C)OC[C@@H](OS(=O)(=O)[O-])[C@@H]4O)O[C@@H]3C)O[C@H](COS(=O)(=O)[O-])[C@H]2O)O[C@H](COS(=O)(=O)[O-])[C@H]1O.[Na+].[Na+].[Na+] (stereo partly drawn) [Conicospermiumoside A7-1 (4)]" property_measured=HC50 value_observed=360
compound="C=C(C)CCC[C@]1(C)OC(=O)C23CC[C@H]4C(=CC[C@H]5C(C)(C)C(O[C@@H]6OC[C@@H](OS(=O)(=O)O)[C@H](O)[C@H]6O[C@@H]6O[C@H](CO)[C@@H](O[C@@H]7O[C@H](CO)[C@@H](O)[C@H](O[C@@H]8O[C@H](CO)[C@@H](O)[C@H](OC)[C@H]8O)[C@H]7O)[C@H](O)[C@H]6O[C@@H]6OC[C@@H](O)[C@H](O)[C@H]6O)CC[C@]45C)[C@]2(C)C[C@H](OC(C)=O)C31 (stereo partly drawn) [Okhotoside B1 (8), okhotoside B1]" property_measured=HC50 value_observed=1050

###

# System: human erythrocytes
# METHOD SUMMARY: Hemolytic activity
# Assay type: cell-based
# CONDITION NOTES: Erythrocyte, 1 h at 37 °C, read-out: ED50, Erythrocytes (hemolytic activity)
Parameter HC50: see the listing below.
PROPERTY MEASURED: HC50

molecule="CO[C@@H]1[C@@H](O)[C@H](O[C@@H]2[C@@H](O)[C@H](O[C@H]3[C@H](O)[C@@H](O[C@@H]4OC[C@@H](O)[C@H](O)[C@H]4O)[C@H](O[C@H]4[C@H](O[C@H]5CC[C@]6(C)C7CC[C@]8(C)[C@@H]([C@@](C)(O)[C@H](O)CC=C(C)C)CC[C@@]8(C)C7=CC[C@H]6C5(C)C)OC[C@@H](OS(=O)(=O)O)[C@@H]4O)O[C@@H]3C)O[C@H](COS(=O)(=O)O)[C@H]2O)O[C@H](COS(=O)(=O)O)[C@H]1O (some centres unmarked) [Frondoside A7-4 (14), frondoside A7-4]" property_measured=HC50 value_observed="2160 nM"
molecule="C=C(C)CCC[C@]1(C)OC(=O)C23CC[C@H]4C(=CC[C@H]5C(C)(C)C(O[C@@H]6OC[C@@H](OS(=O)(=O)O)[C@H](O)[C@H]6O[C@@H]6O[C@H](CO)[C@@H](O[C@@H]7O[C@H](COS(=O)(=O)O)[C@@H](O)[C@H](O[C@@H]8O[C@H](CO)[C@@H](O)[C@H](OC)[C@H]8O)[C@H]7O)[C@H](O)[C@H]6O[C@@H]6OC[C@@H](O)[C@H](O)[C@H]6O)CC[C@]45C)[C@]2(C)C[C@H](OC(C)=O)C31 (some centres unmarked) [Okhotoside B2 (9), okhotoside B2]" property_measured=HC50 value_observed="1360 nM"
molecule="CO[C@@H]1[C@@H](O)[C@H](O[C@@H]2[C@@H](O)[C@H](O[C@H]3[C@H](O)[C@@H](O[C@@H]4OC[C@@H](O)[C@H](O)[C@H]4O)[C@H](O[C@H]4[C@H](O[C@H]5CC[C@]6(C)C7CC[C@]8(C)[C@@H]([C@@](C)(O)C(=O)CC=C(C)C)CC[C@@]8(C)C7=CC[C@H]6C5(C)C)OC[C@@H](OS(=O)(=O)[O-])[C@@H]4O)O[C@@H]3C)O[C@H](COS(=O)(=O)[O-])[C@H]2O)O[C@H](CO)[C@H]1O.[Na+].[Na+] (some centres unmarked) [Conicospermiumoside A3-3 (3)]" property_measured=HC50 value_observed="210 nM"
molecule="COC1C(O)C(CO)OC(OC2C(O)COC(OC3C(C)OC(OC4C(OC5CCC6(C)C7CCC89C(=O)OC(C)(CC(=O)CC(C)C)C8C(OC(C)=O)CC9(C)C7=CCC6C5(C)C)OCC(OS(=O)(=O)O)C4O)C(O)C3O)C2O)C1O (centres unmarked) [Okhotoside A1-1 (7), okhotoside A1-1]" property_measured=HC50 value_observed="420 nM"
molecule="CO[C@@H]1[C@@H](O)[C@H](O[C@@H]2[C@@H](O)[C@H](O[C@H]3[C@H](O)[C@@H](O[C@@H]4OC[C@@H](O)[C@H](O)[C@H]4O)[C@H](O[C@H]4[C@H](O[C@H]5CC[C@]6(C)C7CC[C@]8(C)[C@@H]([C@@](C)(O)[C@@H](CC=C(C)C)OC(C)=O)CC[C@@]8(C)C7=CC[C@H]6C5(C)C)OC[C@@H](OS(=O)(=O)O)[C@@H]4O)O[C@@H]3C)O[C@H](COS(=O)(=O)O)[C@H]2O)O[C@H](CO)[C@H]1O (some centres unmarked) [Conicospermiumoside A3-2 (2)]" property_measured=HC50 value_observed="7560 nM"

###

# System: MDA-MB-231 cells
# METHOD SUMMARY: cells
# Format: cell-based, human
# CONDITION NOTES: Homo sapiens, MDA-MB-231; MTT, 24 h; read-out: Cytotoxicity, IC50, MDA-MB-231
PROPERTY MEASURED: IC50 (µM)

molecule="CO[C@@H]1[C@@H](O)[C@H](O[C@@H]2[C@@H](O)[C@H](O[C@H]3[C@H](O)[C@@H](O[C@@H]4OC[C@@H](O)[C@H](O)[C@H]4O)[C@H](O[C@H]4[C@H](O[C@H]5CC[C@]6(C)C7CC[C@]8(C)[C@@H]([C@@](C)(O)[C@@H](CC=C(C)C)OC(C)=O)CC[C@@]8(C)C7=CC[C@H]6C5(C)C)OC[C@@H](OS(=O)(=O)O)[C@@H]4O)O[C@@H]3C)O[C@H](COS(=O)(=O)O)[C@H]2O)O[C@H](CO)[C@H]1O (some centres unmarked) [Conicospermiumoside A3-2 (2)]" property_measured=IC50 value_observed=20.7
molecule="CO[C@@H]1[C@@H](O)[C@H](O[C@@H]2[C@@H](O)[C@H](O[C@H]3[C@H](O)[C@@H](O[C@@H]4OC[C@@H](O)[C@H](O)[C@H]4O)[C@H](O[C@H]4[C@H](O[C@H]5CC[C@]6(C)C7=CC[C@]8(C)[C@@H]([C@@](C)(O)C(=O)CC=C(C)C)CC[C@@]8(C)C7CC[C@H]6C5(C)C)OC[C@@H](OS(=O)(=O)[O-])[C@@H]4O)O[C@@H]3C)O[C@H](COS(=O)(=O)[O-])[C@H]2O)O[C@H](COS(=O)(=O)[O-])[C@H]1O.[Na+].[Na+].[Na+] (some centres unmarked) [Conicospermiumoside A7-1 (4)]" property_measured=IC50 value_observed=4.78
molecule="C=C(C)CCC[C@]1(C)OC(=O)C23CC[C@H]4C(=CC[C@H]5C(C)(C)C(O[C@@H]6OC[C@@H](OS(=O)(=O)O)[C@H](O)[C@H]6O[C@@H]6O[C@H](CO)[C@@H](O[C@@H]7O[C@H](COS(=O)(=O)O)[C@@H](O)[C@H](O[C@@H]8O[C@H](CO)[C@@H](O)[C@H](OC)[C@H]8O)[C@H]7O)[C@H](O)[C@H]6O[C@@H]6OC[C@@H](O)[C@H](O)[C@H]6O)CC[C@]45C)[C@]2(C)C[C@H](OC(C)=O)C31 (some centres unmarked) [Okhotoside B2 (9), okhotoside B2]" property_measured=IC50 value_observed=4.25
molecule="COC1C(O)C(CO)OC(OC2C(O)COC(OC3C(C)OC(OC4C(OC5CCC6(C)C7CCC89C(=O)OC(C)(CC(=O)CC(C)C)C8C(OC(C)=O)CC9(C)C7=CCC6C5(C)C)OCC(OS(=O)(=O)O)C4O)C(O)C3O)C2O)C1O (centres unmarked) [Okhotoside A1-1 (7), okhotoside A1-1]" property_measured=IC50 value_observed=2.25
molecule="C=C(C)CCC[C@]1(C)OC(=O)C23CC[C@H]4C(=CC[C@H]5C(C)(C)C(O[C@@H]6OC[C@@H](OS(=O)(=O)O)[C@H](O)[C@H]6O[C@@H]6O[C@H](CO)[C@@H](O[C@@H]7O[C@H](CO)[C@@H](O)[C@H](O[C@@H]8O[C@H](CO)[C@@H](O)[C@H](OC)[C@H]8O)[C@H]7O)[C@H](O)[C@H]6O[C@@H]6OC[C@@H](O)[C@H](O)[C@H]6O)CC[C@]45C)[C@]2(C)C[C@H](OC(C)=O)C31 (some centres unmarked) [Okhotoside B1 (8), okhotoside B1]" property_measured=IC50 value_observed=11.3
